Test: Inhibition of Vibrio cholerae gamma carbonic anhydrase incubated for 30 mins prior to testing measured for 10 to 100 secs by phenol red-based stopped-flow CO2 hydration assay
ASSAY METRIC: Ki

>>> result("OB1OCc2ccc(NC(=S)NCc3ccco3)cc21")
"2 µM"
>>> result("O=C(Nc1ccc(Cl)cc1)Nc1ccc2c(c1)B(O)OC2")
"0.65 µM"
>>> result("O=C(NCc1ccco1)Nc1ccc2c(c1)B(O)OC2")
"1.23 µM"
>>> result("O=C(NCc1ccccc1)Nc1ccc2c(c1)B(O)OC2")
"1.87 µM"
>>> result("OB1OCc2ccccc21")
"2.84 µM"
>>> result("COc1ccc(NC(=S)Nc2ccc3c(c2)B(O)OC3)cc1")
"0.874 µM"

###

Measured Ki values are reported for all entries that follow.
Assay: Inhibition of Vibrio cholerae beta carbonic anhydrase incubated for 30 mins prior to testing measured for 10 to 100 secs by phenol red-based stopped-flow CO2 hydration assay
ASSAY METRIC: Ki (µM)

>>> number("O=[N+]([O-])c1ccc2c(c1)B(O)OC2")
8.87
>>> number("OB1OCc2cc(F)ccc21")
97.3
>>> number("OB1OCc2ccc(NC(=S)NCCc3ccccc3)cc21")
18.4
>>> number("OB1OCc2ccc(NC(=S)Nc3ccc(F)cc3)cc21")
6.35
>>> number("OB1OCc2ccccc21")
70.3
>>> number("Nc1ccc2c(c1)B(O)OC2")
21.8
>>> number("COc1ccc(NC(=S)Nc2ccc3c(c2)B(O)OC3)cc1")
2.3
>>> number("OB1OCc2ccc(NC(=S)Nc3ccccc3)cc21")
19.1
>>> number("O=C(Nc1ccc(F)cc1)Nc1ccc2c(c1)B(O)OC2")
28
>>> number("Cc1ccc(NC(=S)Nc2ccc3c(c2)B(O)OC3)cc1")
2.59
>>> number("COc1ccc(C)cc1NC(=O)Nc1ccc2c(c1)B(O)OC2")
67.3
>>> number("O=C(NCc1ccco1)Nc1ccc2c(c1)B(O)OC2")
79.9
>>> number("O=C(Nc1ccc2c(c1)B(O)OC2)Nc1c(Cl)cc(Cl)cc1Cl")
84.5
>>> number("OB1OCc2ccc(NC(=S)Nc3ccc4ccccc4c3)cc21")
26
>>> number("O=C(Nc1ccc(C(F)(F)F)cc1)Nc1ccc2c(c1)B(O)OC2")
55.1
>>> number("O=C(Nc1ccc(Cl)cc1)Nc1ccc2c(c1)B(O)OC2")
19.5
>>> number("O=C(Nc1ccccc1)Nc1ccc2c(c1)B(O)OC2")
56.4
>>> number("Cc1cc(Cl)cc(CNC(=O)Nc2ccc3c(c2)B(O)OC3)c1")
61.3
>>> number("O=C(NCc1ccccc1)Nc1ccc2c(c1)B(O)OC2")
42.1
>>> number("OB1OCc2ccc(NC(=S)NCc3ccccc3)cc21")
30.4
>>> number("OB1OCc2ccc(NC(=S)NCc3ccco3)cc21")
31.9
>>> number("O=[N+]([O-])c1ccc(NC(=S)Nc2ccc3c(c2)B(O)OC3)cc1")
0.933
>>> number("OB1OCc2ccc(NC(=S)Nc3ccc(C(F)(F)F)cc3)cc21")
1.25
>>> number("CC(=O)c1ccc(NC(=O)Nc2ccc3c(c2)B(O)OC3)cc1")
65.1

###

Assay: Inhibition of Vibrio cholerae gamma carbonic anhydrase incubated for 30 mins prior to testing measured for 10 to 100 secs by phenol red-based stopped-flow CO2 hydration assay
pKi: −log10 of the molar value.
Measured pKi values are reported for all entries that follow.
ASSAY METRIC: pKi

>>> number("O=C(Nc1ccc(F)cc1)Nc1ccc2c(c1)B(O)OC2")
6.19
>>> number("COc1ccc(C)cc1NC(=O)Nc1ccc2c(c1)B(O)OC2")
6.39
>>> number("Cc1cc(Cl)cc(CNC(=O)Nc2ccc3c(c2)B(O)OC3)c1")
6.14
>>> number("OB1OCc2ccc(NC(=S)Nc3ccc(F)cc3)cc21")
6.26
>>> number("OB1OCc2ccc(NC(=S)Nc3ccc(C(F)(F)F)cc3)cc21")
5.72
>>> number("OB1OCc2ccc(NC(=S)NCc3ccccc3)cc21")
5.40

Hey, just so you know, these numbers are from ChEMBL document CHEMBL4725479.
